System: PC-3 prostate
Assay: NCI-60 one-dose screen, 48 h
Details: 10 µM unless noted
Compounds without any hit were thinned out: in the full panel of roughly 83,000, 20% have a hit. Calls of active or inactive are those of the source. The calls were made as follows: active = growth percent below 10; inactive = the rest.
Classes used: active, inactive

[[record]]
compound = "CCCCCCCC/C=C\\CCCCCCCCOc1ccccc1CC(=O)NCC[N+]1(C)CCOCC1"
answer_label = "inactive"

[[record]]
compound = "CN1CCCc2cc(/C=C3\\SC(=S)N(C(Cc4ccc(O)cc4)C(=O)O)C3=O)ccc21 (stereo not given)"
answer_label = "inactive"

[[record]]
compound = "CN(Cc1ccccc1)c1nc(Cl)c(C2CC(c3ccc(F)cc3)=NN2C=O)s1 (stereo not given)"
answer_label = "inactive"

[[record]]
compound = "CC/C(=C(/c1ccc(O)cc1)c1ccc(OCCN2CCCCCC2)cc1)c1ccc(Cl)cc1"
answer_label = "inactive"

[[record]]
compound = "O=C(Oc1ccc(CO[N+](=O)[O-])cc1)c1ccccc1"
answer_label = "active"

[[record]]
compound = "O=C(NCCCN1CCCCC1)c1ccc(-c2nc3ccc4[nH]ncc4c3c3c2CCCC3)cc1"
answer_label = "inactive"

[[record]]
compound = "COc1ccc(-c2nn3c(-c4cc(F)c(Cl)cc4Cl)nnc3s2)cc1"
answer_label = "inactive"

[[record]]
compound = "Cc1ccc(NC(=O)c2sc3nc(C)c(C(=O)c4ccccc4)cc3c2N)cc1"
answer_label = "inactive"

[[record]]
compound = "COC(=O)c1[nH]nc(OC)c1C1(C(C#N)c2nc3ccccc3s2)CCCc2ccccc21 (stereo not given)"
answer_label = "inactive"

[[record]]
compound = "COc1ccc(/C=N\\Nc2nc(SCC(C)C)nc(-c3ccc(OC)cc3)c2C#N)cc1"
answer_label = "inactive"

[[record]]
compound = "COc1ccc(-c2cc(-c3cccnc3)nc3sc4c(Cl)nnnc4c23)cc1OC"
answer_label = "inactive"

[[record]]
compound = "Cc1cc2nc(C(Cl)Cl)nc(-c3ccc(Cl)cc3)n2n1"
answer_label = "inactive"

[[record]]
compound = "CN1CCN(c2ccc(/C=C/C(=O)c3ccc(O)cc3)cc2)CC1"
answer_label = "inactive"

[[record]]
compound = "C=C[C@]1(C)C=C2CC[C@@H]3C(C)(C)C(=O)CC[C@@]3(C)[C@@H]2CC1"
answer_label = "inactive"

[[record]]
compound = "O=C(c1ccc(Nc2nccc(NCCCNc3ccnc4cc(Cl)ccc34)n2)cc1)N1CCCCC1"
answer_label = "inactive"

[[record]]
compound = "CC1(Cc2ccccc2)CC2=C(C(=O)O1)C(c1ccccc1)NC(=O)N2 (stereo not given)"
answer_label = "inactive"

[[record]]
compound = "CCCCCCCCCCCCCCCCCCn1cc(COc2ccc(C=O)cc2)nn1"
answer_label = "inactive"

[[record]]
compound = "CCCCCCNC(=O)Oc1ccc(/C(=C(/CC)Cc2ccccc2)c2ccc(OCCCN(C)C)cc2)cc1"
answer_label = "inactive"

[[record]]
compound = "Nc1ncc(-c2ccc3ncnc(N4CCc5ccc(Cl)cc54)c3c2)cc1C(F)(F)F"
answer_label = "inactive"

[[record]]
compound = "CN(Cc1ccccc1)c1nc(Cl)c(C2CC(c3ccc4c(c3)OCO4)=NN2c2cc(Cl)cc(Cl)c2)s1 (stereo not given)"
answer_label = "inactive"

[[record]]
compound = "Oc1ccccc1C=Nc1ccc(N2CCN(c3ccccc3)CC2)cc1"
answer_label = "inactive"

[[record]]
compound = "Cc1ccc(C(=O)c2ccc(CC(=O)N=Nc3c(O)[nH]c4ccc(OC(F)(F)F)cc34)n2C)cc1"
answer_label = "inactive"

[[record]]
compound = "O=c1cc(N/N=C/c2ccc(F)cc2)c2cc(Cl)ccc2[nH]1"
answer_label = "active"

[[record]]
compound = "COc1ccc(-c2nnc3n(C)c(=O)c4ccccc4n23)cc1O"
answer_label = "inactive"

[[record]]
compound = "COc1ccc2c(c1)CC[C@@H]1[C@@H]2CC[C@]2(C)C3C(=CCC4C(=O)N(c5ccccc5)C(=O)C43)C[C@@H]12 (stereo not given in full)"
answer_label = "inactive"

[[record]]
compound = "COc1ccc(/C=C(\\C#N)c2cc3ccccc3[nH]2)cc1"
answer_label = "inactive"

[[record]]
compound = "CN1CCN(c2ccc(Nc3ncc(C(N)=O)c(NCCCNC(=O)C4CCC4)n3)cc2)CC1"
answer_label = "inactive"

[[record]]
compound = "OCc1cc(CN2CCCCC2)c(O)c2ncccc12"
answer_label = "inactive"

[[record]]
compound = "O=C(N=Nc1c(O)[nH]c2ccccc12)Nc1ccccc1Cl"
answer_label = "inactive"

[[record]]
compound = "Cc1ccc(/C=C/c2c(C(=O)/C=C/c3ccccc3)c(C)nc3ccccc23)cc1"
answer_label = "inactive"

[[record]]
compound = "CCCNNC(=O)/C=C/c1ccc(CNCCc2c(C)[nH]c3ccccc23)cc1"
answer_label = "inactive"

[[record]]
compound = "CCOC(=O)c1c(-c2ccc(OC)cc2)c(C#N)c2c(C#N)c(N)nn2c1N"
answer_label = "inactive"

[[record]]
compound = "O=C1C=C(Nc2ccccc2)c2ncccc2C1=O"
answer_label = "active"

[[record]]
compound = "Cc1ccc(-c2nc(C#N)c(S(=O)(=O)N(C)C)o2)cc1"
answer_label = "inactive"

[[record]]
compound = "CC1=C2[C@@H](CC1)[C@]1(C)O[C@@](C(C)C)(C[C@H]1OC(=O)CO)[C@H]2OC(=O)C1CC1c1ccccc1 (stereo not given in full)"
answer_label = "inactive"

[[record]]
compound = "CCCCCCCCCCCCCCCC(=O)O[C@@H]1[C@@H](O)[C@@H](O)C([C@H](NC(=O)[C@@H]2C[C@@H](CCC)CN2C)[C@H](C)Cl)O[C@@H]1SC (stereo not given in full)"
answer_label = "inactive"

[[record]]
compound = "CCCCCCCCN(CCCCCCCC)CC(O)c1cc(Cl)ccc1OC (stereo not given)"
answer_label = "inactive"

[[record]]
compound = "COC1=CC(=O)C(OC)=C(O)C1=O"
answer_label = "inactive"

[[record]]
compound = "N#CC1=C(N)Oc2c(sc3c(Br)cccc23)C1c1ccccn1 (stereo not given)"
answer_label = "inactive"

[[record]]
compound = "CCCn1nc(C(=O)N2CCCCC2)c2c1CCC(N1CCC(c3ccncc3)CC1)C2 (stereo not given)"
answer_label = "inactive"


----------
System: UO-31 renal
Assay: NCI-60 one-dose screen, 48 h (100 = growth as untreated, 0 = no growth, -100 = all killed)
Settings: 10 µM unless noted
Compounds without any hit were thinned out: in the full panel of roughly 83,000, 20% have a hit.
Endpoint: growth (%)

[[record]]
compound = "COc1cc(N=Nc2ccc(O)c3ncccc23)c2ncccc2c1"
target_of_assay = "UO-31 renal"
endpoint = "growth"
endpoint_result = 16.6

[[record]]
compound = "CCOC(=O)c1cc2c(n1Cc1cc(OC)cc(OC)c1Br)-c1nc(NC(C)=O)sc1CCC2"
target_of_assay = "UO-31 renal"
endpoint = "growth"
endpoint_result = 51.8

[[record]]
compound = "CN1CCN(C(=O)OCc2nc3c(N4CCOCC4)nc(Cl)nc3n2C)CC1"
target_of_assay = "UO-31 renal"
endpoint = "growth"
endpoint_result = -100

[[record]]
compound = "S=c1nc(CS)[nH]c2ccccc12"
target_of_assay = "UO-31 renal"
endpoint = "growth"
endpoint_result = 71.8

[[record]]
compound = "Cc1ccc(Nc2nc(-c3cc(O)c(C)c(C)c3O)cs2)cc1"
target_of_assay = "UO-31 renal"
endpoint = "growth"
endpoint_result = 89.7

[[record]]
compound = "COc1cc2nc3cc([N+](=O)[O-])ccc3c(NCCNCC(C)(C)O)c2cc1OC"
target_of_assay = "UO-31 renal"
endpoint = "growth"
endpoint_result = 27.7

[[record]]
compound = "CC1=CC(C)(C)NC(=S)N1c1ccc(Cl)cc1"
target_of_assay = "UO-31 renal"
endpoint = "growth"
endpoint_result = 82.2

[[record]]
compound = "N#CC(Cc1cccc2ccccc12)c1cc2ccccc2[nH]1 (stereo unspecified)"
target_of_assay = "UO-31 renal"
endpoint = "growth"
endpoint_result = 51.9

[[record]]
compound = "O=C(/C=C/C12c3ccccc3C(c3ccccc31)C1C(=O)NC(=O)C12)c1ccncc1 (stereo unspecified)"
target_of_assay = "UO-31 renal"
endpoint = "growth"
endpoint_result = 26.5

[[record]]
compound = "Brc1ccc(/C=C(/C2=NCCN2)n2ccc3ccccc32)cc1"
target_of_assay = "UO-31 renal"
endpoint = "growth"
endpoint_result = 37.2

[[record]]
compound = "CN(C)CCCn1c2nc(=O)[nH]c(=O)c-2nc2cc(Cl)c(Cl)cc21"
target_of_assay = "UO-31 renal"
endpoint = "growth"
endpoint_result = 80.9


----------
System: NCI-H322M lung
Test: NCI-60 one-dose screen, 48 h (100 = growth as untreated, 0 = no growth, -100 = all killed)
Details: 10 µM unless noted
Compounds without any hit were thinned out: in the full panel of roughly 83,000, 20% have a hit.
Define the label as yes (1) when growth is strictly less than 80% and as no (0) in all remaining cases.

[[record]]
molecule = "Clc1cccc(Nc2ncnc3ccc(-c4cncc(-n5cnnn5)c4)cc23)c1"
answer_label = "yes (1)"

[[record]]
molecule = "COc1cc(-c2nc(SCCC(C)C)nc(Nc3ccc(F)cc3)c2C#N)cc(OC)c1OC"
answer_label = "yes (1)"

[[record]]
molecule = "Cc1ccc(NC(=O)c2ccc(CN3CCN(C)CC3)cc2)cc1Nc1nccc(-c2cccnc2)n1"
answer_label = "no (0)"

[[record]]
molecule = "Nc1ncnc2c1C(c1ccc([N+](=O)[O-])cc1)c1sc3c(F)cccc3c1O2 (centres undefined)"
answer_label = "no (0)"

[[record]]
molecule = "O=C(/C=C/C12c3ccccc3C(c3ccccc31)C1C(=O)NC(=O)C12)c1ccncc1 (centres undefined)"
answer_label = "yes (1)"

[[record]]
molecule = "CCN(C(=O)N1CCN(c2cc3c(cc2F)c(=O)c(C(=O)O)cn3C2CC2)CC1)c1nc(-c2ccccc2)cs1"
answer_label = "yes (1)"

[[record]]
molecule = "CONC1=Nc2cc(NC(N)=NCc3ccccc3)c(N(C)C3CCCCC3)cc2OC1"
answer_label = "no (0)"

[[record]]
molecule = "O=[N+]([O-])c1ccc(S(=O)Cc2ccccc2)c([N+](=O)[O-])c1 (centres undefined)"
answer_label = "no (0)"

